Source listed as patent US20060122222A1.

Readout: melting point

## Input # input molecule: `O=C(O)C(=O)Nc1cc(-c2ccc(-c3cccc4c3oc3ccccc34)cc2)cn(Cc2ccccc2)c1=O` ; wanted: its melting point
## Output 220 to 223 °C

## Input Which measured melting point value corresponds to `O=C(O)CCNc1cc(-c2ccc(-c3cccc4c3oc3ccccc34)cc2)nc(-c2ccccc2)n1` ?
## Output 210 °C (dec.)

## Input Requested field: melting point. Item: CCc1ccc(-c2sc(NC(=O)c3ccc(S(=O)(=O)N4CCCC4C(=O)O)cc3)nc2-c2ccc(Cl)cc2)cc1 (stereo not drawn)
## Output 289 to 292 °C

## Input What value of melting point has been reported for the following molecule? `O=C(O)CCNc1cc(-c2ccc(-c3cccc4c3oc3ccccc34)cc2)nc(Cc2ccccc2)n1`
## Output 205 °C (dec.)

## Input Tell me the measured melting point of O=C(O)[C@@H]1CSC(c2ccc(-c3ccc(-n4ccc5ccccc54)cc3)cc2)N1 (stereo in doubt) , please.
## Output 135 to 137 °C (dec.)

## Input I have this molecule here, O=C(O)[C@@H]1CSC(c2ccc(-c3ccc(-c4c(Cc5ccccc5)oc5ccccc45)cc3)cc2)N1 (mixture of isomers) , and I need its recorded melting point.
## Output 148 °C (dec.)
